test description: solvent given as SMILES
condition parameters: in O
Labels assigned by solvation free energy, 298 K range: Low = under -8 kcal/mol, Medium = from -8 kcal/mol up to -2 kcal/mol, High = -2 kcal/mol and over

{"columns": ["compound", "classification"],
 "data": [
  ["c1ccc2c(c1)oc1ccccc12", "Medium"],
  ["N", "Medium"],
  ["O=C(O)CCCC(=O)O", "Low"]
]}

Input line: Consider Cc1ccc(Br)cc1 . To which solvation free energy, 298 K class does it belong?
Output line: High

Input line: Consider CC1CCC2=C1CC1CCC2(C)C1(C)C (stereo unspecified) . To which solvation free energy, 298 K class does it belong?
Output line: High

Input line: Consider CCCl . To which solvation free energy, 298 K class does it belong?
Output line: High

* * *

test description: solvent given as SMILES
condition parameters: in CC(C)CC(C)(C)C
Please assign NO whenever solvation free energy, 298 K is at or above -6 kcal/mol, and YES whenever it is below.

{"columns": ["smiles repr", "classification"],
 "data": [
  ["Cc1cccc(C)c1", "NO"],
  ["CCCCCl", "NO"],
  ["c1ccc2ncccc2c1", "YES"],
  ["Nc1ccc([N+](=O)[O-])cc1", "YES"],
  ["c1ccc2c(c1)Cc1ccccc1-2", "YES"]
]}

Input line: Hi there! Is solvation free energy, 298 K for CC(C)O below -6 kcal/mol, do you know?
Output line: NO

Input line: Hi there! Is solvation free energy, 298 K for C(=Cc1ccccc1)c1ccccc1 below -6 kcal/mol, do you know?
Output line: YES

Input line: Hi there! Is solvation free energy, 298 K for Cc1ccccn1 below -6 kcal/mol, do you know?
Output line: NO

Input line: Hi there! Is solvation free energy, 298 K for C1COCCO1 below -6 kcal/mol, do you know?
Output line: NO

Input line: Hi there! Is solvation free energy, 298 K for CCCC(C)=O below -6 kcal/mol, do you know?
Output line: NO

Input line: Hi there! Is solvation free energy, 298 K for CCCN(CCC)N=O below -6 kcal/mol, do you know?
Output line: YES

Input line: Hi there! Is solvation free energy, 298 K for C=CC(=C)C below -6 kcal/mol, do you know?
Output line: NO

Input line: Hi there! Is solvation free energy, 298 K for CNC(=O)c1ccccc1 below -6 kcal/mol, do you know?
Output line: YES

Input line: Hi there! Is solvation free energy, 298 K for Cc1ccccc1N below -6 kcal/mol, do you know?
Output line: YES

Input line: Hi there! Is solvation free energy, 298 K for OC1CCCCC1 below -6 kcal/mol, do you know?
Output line: NO

Input line: Hi there! Is solvation free energy, 298 K for O below -6 kcal/mol, do you know?
Output line: NO

Input line: Hi there! Is solvation free energy, 298 K for O=C1CCCO1 below -6 kcal/mol, do you know?
Output line: NO

Input line: Hi there! Is solvation free energy, 298 K for CCCCCCCCO below -6 kcal/mol, do you know?
Output line: YES

Input line: Hi there! Is solvation free energy, 298 K for [HH] below -6 kcal/mol, do you know?
Output line: NO

* * *

test description: solvent given as SMILES
condition parameters: in Cc1cccc(C)c1
# maps each entry to its solvation free energy, 298 K
Value expressed in kcal/mol; do not type the unit.

{"columns": ["smiles repr", "parameter measured", "measured number"],
 "data": [
  ["CCCC", "solvation free energy, 298 K", -2.34],
  ["CCc1ccc(O)cc1", "solvation free energy, 298 K", -7.83],
  ["C1COCCOCCOCCOCCO1", "solvation free energy, 298 K", -10.9],
  ["CCCCCCCCCCCCCCCCCCCCCCCCCCCC", "solvation free energy, 298 K", -19.2],
  ["CC(C)C", "solvation free energy, 298 K", -2.07]
]}

Input line: I am curious: what solvation free energy, 298 K value has been reported for C(=Cc1ccccc1)c1ccccc1 ?
Output line: -11.2

Input line: I am curious: what solvation free energy, 298 K value has been reported for CC(C)CCO ?
Output line: -4.93

Input line: I am curious: what solvation free energy, 298 K value has been reported for C1COCCOCCOCCOCCOC1 ?
Output line: -11.4

Input line: I am curious: what solvation free energy, 298 K value has been reported for CCC ?
Output line: -1.62

Input line: I am curious: what solvation free energy, 298 K value has been reported for Cc1ccc(O)c(O)c1 ?
Output line: -9.05

Input line: I am curious: what solvation free energy, 298 K value has been reported for Cc1ccccc1N ?
Output line: -7.32

Input line: I am curious: what solvation free energy, 298 K value has been reported for CCCl ?
Output line: -2.87

Input line: I am curious: what solvation free energy, 298 K value has been reported for [HH] ?
Output line: 1.49

Input line: I am curious: what solvation free energy, 298 K value has been reported for C=CCCCC ?
Output line: -3.74

Input line: I am curious: what solvation free energy, 298 K value has been reported for Oc1ccccc1Cl ?
Output line: -6.42

Input line: I am curious: what solvation free energy, 298 K value has been reported for c1ccc2c(c1)OCCOCCOCCOc1ccccc1OCCOCCOCCO2 ?
Output line: -27.3

Input line: I am curious: what solvation free energy, 298 K value has been reported for C=CC=C ?
Output line: -2.48
